Data origin, for the record: the supplement of paper PMC9170038

Field: apparent KD of MS2 coat protein. Provide a value for each of the sequences that follow.
tested on: MS2 coat protein; experiment: apparent KD of MS2 coat protein; higher = weaker reporter binding; settings: Eterna round: R107; input ligand: none
Give the number; nM is assumed, so skip it.

-- ask Recall the recorded apparent KD of MS2 coat protein for ACAUGAGGAUCACCCAUGUAGCCUAGGGAAGGAGCGUCGUAAGAGACAGGUAGGUCGCCCGCAUGUGAGUCAUCCAUGACGAGGG [#18 Same State - Arginine A] with MS2 coat protein and state it.
-- reply 25.9

-- ask For MS2 coat protein, provide apparent KD of MS2 coat protein of CUGACAUGAGGAUCACCCAUGUACACUGAAGGAGCGUCGAGAAUGACAGGUAGGUCGCAGAAUAAUAAUGGUGAUGUUUAGGUAA [Exclusion Arginine A GF 2] please.
-- reply 20.8

-- ask Please tell me: apparent KD of MS2 coat protein of ACAUGUUGGUGGUACCAACGAAGGCGGAAACGAGGACCGGUACGGCCGCCACUCGGCGACAUGAGGAUCACCCAUGUGGUUAAAA [Exclusion - Tryptophan A (Freestyle 3)] , system MS2 coat protein?
-- reply 398

-- ask Form field - read-out: apparent KD of MS2 coat protein; system: MS2 coat protein; submitted item: CGCACAUGAGGAUCACCCAUGUGAGGGCGGCGAGGACCGGUACGGCCGCCACUCGCAGGACAUGAGGAUCACCCAUGUGCCGCCG [SSTA DOUBLE!!! :-D]
-- reply 548

-- ask Identify the measured apparent KD of MS2 coat protein of UUCGUUUACGGAAGGAGCGACGGACAUCGGUGAACGACGCACAUGAGGAUCACCCAUGUACGUCAGGUAGGUCGCCGUUAAGAGU [Somama] for MS2 coat protein.
-- reply 17.4

-- ask Missing value: apparent KD of MS2 coat protein, MS2 coat protein, entry CCGUUUUAUGGCGACAUAGGGCGGACUGAAGGAGCGGUAAAACAGCCAGGUAGGUCGCAGAGAUCCACAUGAGGAUCACCCAUGU [!0.aC] . Fill in?
-- reply 39.1
